# experimental target: T1, mouse ACVR2A (mouse, UniProt P27038 20-135, limits assumed); also: test concentration or dose not given here
# T1 construct: coated antigen of the initial ELISA
# T1 sequence (P27038 20-135 limits assumed): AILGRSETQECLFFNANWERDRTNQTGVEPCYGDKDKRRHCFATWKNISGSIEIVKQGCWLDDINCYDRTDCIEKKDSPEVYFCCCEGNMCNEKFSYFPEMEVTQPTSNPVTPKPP
# measurement protocol: ELISA
# Procedure: The binding of ACVR2A-specific monoclonal antibodies to human ACVR2A, mouse ACVR2A, biotinylated goat anti-human kappa light chain (positive control) and human Fc (negative control) were determined by ELISA.
Below, each of the binders is paired with its reported optical density value.
# output: bare number, implied unit OD

Here are 2 binders together with their reported answers.
# binder, value
data = [
    ("371_E06 (antibody, V domains shown, Group III) VH: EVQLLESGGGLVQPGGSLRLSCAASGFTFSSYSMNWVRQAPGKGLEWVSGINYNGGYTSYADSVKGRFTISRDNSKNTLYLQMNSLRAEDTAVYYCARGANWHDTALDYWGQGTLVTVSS VL: DIQMTQSPSSLSASVGDRVTITCRASQSISTYLNWYQQKPGKAPKLLIYAVTSLHSGVPSRFSGSGSGTDFTLTISSLQPEDFATYYCQQSYESPLTFGGGTKVEIK", 3.03),
    ("375_E06 (antibody, V domains shown, Group III) VH: EVQLLESGGGLVQPGGSLRLSCAASGFTFSSYSMNWVRQAPGKGLEWVSGINYNGGYKSYADSVKGRFTISRDNSKNTLYLQMNSLRAEDTAVYYCARGANWHDTALDYWGQGTLVTVSS VL: DIQMTQSPSSLSASVGDRVTITCRASQSILSYLNWYQQKPGKAPKLVIYAATSRASGVPSRFSGSGSGTDFTLTISSLQPEDFATYYCQQSYDSPLTFGGGTKVEIK", 3.67),
]

Here is another binder to look at.
Item 371_E10 (antibody, V domains shown, Group III) VH: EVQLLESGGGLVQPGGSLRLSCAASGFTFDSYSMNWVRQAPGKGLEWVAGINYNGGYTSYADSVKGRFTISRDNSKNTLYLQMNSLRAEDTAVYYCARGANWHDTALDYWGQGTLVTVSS VL: DIQMTQSPSSLSASVGDRVTITCRASQSISTYLNWYQQKPGKAPKLLIYAVTSRASGVPSRFSGSGSGTDFTLTISSLQPEDFATYYCQQSYNSPLTFGGGTKVEIK has what recorded optical density? 3.05

Data provenance: patent US20210380703A1
